Listing of entries alongside the reported MIC.
Tested on: Staphylococcus epidermidis
method: In vitro broth dilution minimal inhibitory concentration (standard microdilution method)
Format: cell-based
appliedConditions: 24 h, Mueller-Hinton broth, 24-hour, read-out: Microdilution Broth MIC
assayReadout: MIC

CC(=O)NCC1CN(c2ccc(S)cc2)C(=O)O1 (single isomer, unassigned)	> 50 µg/mL
CC(C)c1ccc(N2CC(CN)OC2=O)cc1 (stereo not shown)	> 200 µg/mL
CC(=O)NCC1CN(c2ccc(C=O)cc2)C(=O)O1 (single isomer, unassigned)	> 128 µg/mL
NCC1CN(c2ccc(S(N)(=O)=O)cc2)C(=O)O1 (single isomer, unassigned)	> 100 µg/mL
